Test system: H4IIe (AhR CALUX)
Conditions: cytotoxicity, H4IIe (AhR assay cells)
Listing of recorded IC10, H4IIe, AhR by entry.
Recorded Metric: IC10, H4IIe, AhR (µM)

In [3]: df
Out[3]:
                                   compound       assay_system  numeric_value
0                CC(c1ccc(O)cc1)c1ccc(O)cc1  H4IIe (AhR CALUX)           84.3
1              CC1(C)[C@H](O)C(C)(C)[C@H]1O  H4IIe (AhR CALUX)           8940
2                   Oc1ccc(Sc2ccc(O)cc2)cc1  H4IIe (AhR CALUX)             50
3  O=S(=O)(c1ccc(O)cc1)c1ccc(OCc2ccccc2)cc1 [BPS-MPE, 4-[4-(benzyloxy)benzenesulfonyl]phenol]  H4IIe (AhR CALUX)           51.8
4  Cc1cc(Cc2cc(C)c(O)c(C)c2)cc(C)c1O [TMBPF, Bis(3,5-dimethyl-4-hydroxyphenyl)methane]  H4IIe (AhR CALUX)            105
5  Oc1ccc(Cc2ccc(O)cc2)cc1 [BPF, Bis(4-hydroxyphenyl)methane]  H4IIe (AhR CALUX)            292
6  CC(C)(c1cc(Cl)c(O)c(Cl)c1)c1cc(Cl)c(O)c(Cl)c1  H4IIe (AhR CALUX)           90.1
7  Oc1ccc(C2(c3ccc(O)cc3)CCCCC2)cc1 [BPZ, 1,1'-Bis(4-hydroxyphenyl)cyclohexane]  H4IIe (AhR CALUX)           83.8

----------
Molecular target: Estrogen Receptor ERα (Homo sapiens, UniProt P03372)
Sequence (P03372 311-547 limits assumed): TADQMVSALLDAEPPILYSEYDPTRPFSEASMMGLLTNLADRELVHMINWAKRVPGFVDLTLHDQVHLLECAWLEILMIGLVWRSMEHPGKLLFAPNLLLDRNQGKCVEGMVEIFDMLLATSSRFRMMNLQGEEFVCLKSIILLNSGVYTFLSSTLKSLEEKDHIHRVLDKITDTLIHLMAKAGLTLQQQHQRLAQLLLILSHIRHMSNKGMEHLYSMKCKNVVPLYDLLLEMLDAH
Assay: cell-based
Conditions: This Study; ERα; in M
Recorded Metric: EC10

>>> df
                                   compound                              assay_system  recorded_metric  numeric_value
0  Oc1ccc(Cc2ccc(O)cc2)cc1 [BPF, Bis(4-hydroxyphenyl)methane]  Estrogen Receptor ERα (Homo sapiens, UniProt P03372)             EC10       9.95E-07
1  O=S(=O)(c1ccc(O)cc1)c1ccc(O)cc1 [BPS, 4,4'-Sulfonyldiphenol]  Estrogen Receptor ERα (Homo sapiens, UniProt P03372)             EC10       1.43E-06
2  CCC(C)(c1ccc(O)cc1)c1ccc(O)cc1 [BPB, 4,4'-(Butane-2,2-diyl)diphenol]  Estrogen Receptor ERα (Homo sapiens, UniProt P03372)             EC10       1.35E-07
3  COC(=O)C(c1ccc(O)cc1)c1ccc(O)cc1 [Bz, Methyl bis(4-hydroxyphenyl)acetate]  Estrogen Receptor ERα (Homo sapiens, UniProt P03372)             EC10       1.06E-06

----------
Tested on: MCF7 (ARE/MMP)
Details: Bioassay ARE; cytotoxicity; dosing range all; linear model fit
Recorded Metric: IC10, linear

>>> print(df.to_string())
                                    compound  numeric_value
 0  Cc1ccc(S(=O)(=O)NC(=O)Nc2cccc(OS(=O)(=O)c3ccc(C)cc3)c2)cc1       4.06E-05
 1            CCC(C)(c1ccc(O)cc1)c1ccc(O)cc1       3.87E-05
 2  CC(C)(c1ccc(O)c(-c2ccccc2)c1)c1ccc(O)c(-c2ccccc2)c1 [BPPH, 2,2-Bis(2-hydroxy-5-biphenylyl)propane]       5.76E-06
 3  CC(C)(c1ccc(OCC2CO2)cc1)c1ccc(OCC2CO2)cc1 (stereo not drawn)       3.62E-05
 4  Oc1ccc(Cc2ccc(O)cc2)cc1 [BPF, Bis(4-hydroxyphenyl)methane]       6.90E-04
 5  CC(C)c1cc(C(C)(C)c2ccc(O)c(C(C)C)c2)ccc1O       7.17E-06
 6           O=S(=O)(c1ccc(O)cc1)c1ccc(O)cc1       1.31E-03
 7                CC(c1ccc(O)cc1)c1ccc(O)cc1       1.10E-04
 8  C=CCOc1ccc(S(=O)(=O)c2ccc(O)cc2)cc1 [BPS-MAE, 4-[[4-(Allyloxy)phenyl]sulfonyl]phenol]       4.93E-04
 9  Oc1ccc(C(c2ccc(O)cc2)(C(F)(F)F)C(F)(F)F)cc1       1.82E-05
10  CC(C)(c1cc(Cl)c(O)c(Cl)c1)c1cc(Cl)c(O)c(Cl)c1       8.16E-05
11  Oc1ccc(C2(c3ccc(O)cc3)CCCCC2)cc1 [BPZ, 1,1'-Bis(4-hydroxyphenyl)cyclohexane]       3.45E-05
12                   Oc1ccc(Sc2ccc(O)cc2)cc1       3.07E-04
13  COC(=O)C(c1ccc(O)cc1)c1ccc(O)cc1 [Bz, Methyl bis(4-hydroxyphenyl)acetate]       3.89E-04
14  O=C(OCc1ccccc1)c1ccc(O)cc1 [BzPB, Benzyl 4-hydroxybenzoate]       1.23E-04
15  O=S(=O)(c1ccc(O)cc1)c1ccc(OCc2ccccc2)cc1 [BPS-MPE, 4-[4-(benzyloxy)benzenesulfonyl]phenol]       1.19E-04
16      CC(c1ccccc1)(c1ccc(O)cc1)c1ccc(O)cc1       2.44E-05

----------
Test system: HEK293H, HEK293T, H4IIe, MCF7 and SH-SY5Y cells
Details: median cytotoxicity over all cell lines
// values below are reported IC10, median
Recorded Metric: IC10, median (µM)

In [3]: df
Out[3]:
                                   compound  numeric_value
0  Oc1ccc(C(c2ccc(O)cc2)(C(F)(F)F)C(F)(F)F)cc1           22.8
1            CC1(C)C(O)C(C)(C)C1O (racemic)           8290
2  CC(C)c1cc(C(C)(C)c2ccc(O)c(C(C)C)c2)ccc1O           7.84
3            CCC(C)(c1ccc(O)cc1)c1ccc(O)cc1           36.2
4  CC(C)(c1cc(Cl)c(O)c(Cl)c1)c1cc(Cl)c(O)c(Cl)c1           78.4
5                CC(c1ccc(O)cc1)c1ccc(O)cc1           79.1
6      CC(c1ccccc1)(c1ccc(O)cc1)c1ccc(O)cc1           33.1
7  O=S(=O)(c1ccc(O)cc1)c1ccc(OCc2ccccc2)cc1 [BPS-MPE, 4-[4-(benzyloxy)benzenesulfonyl]phenol]            112

----------
Molecular target: Peroxisome proliferator-activated receptor γ (Homo sapiens)
Sequence (P37231 238-505 limits assumed): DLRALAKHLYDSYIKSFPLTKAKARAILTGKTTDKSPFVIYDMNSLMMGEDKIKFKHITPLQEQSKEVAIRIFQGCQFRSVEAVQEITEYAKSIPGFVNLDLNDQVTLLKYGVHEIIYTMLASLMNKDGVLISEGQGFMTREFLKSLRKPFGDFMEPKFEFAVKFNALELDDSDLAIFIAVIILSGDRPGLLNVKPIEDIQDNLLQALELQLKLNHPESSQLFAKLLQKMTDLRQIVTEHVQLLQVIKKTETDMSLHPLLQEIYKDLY
Test: cell-based
Conditions: PPARγ bioassay; dosing range all; log-logistic model
Recorded Metric: logEC10

In [3]: df
Out[3]:
                                   compound     result
0  Oc1ccc(Cc2ccc(O)cc2)cc1 [BPF, Bis(4-hydroxyphenyl)methane]  no effect
1  Oc1ccc(C(c2ccc(O)cc2)(C(F)(F)F)C(F)(F)F)cc1 [BPAF]  no effect
2  CC(C)(c1ccc(O)cc1)c1ccc(O)cc1 [BPA, 4,4'-(Propane-2,2-diyl)diphenol, reference compound]  no effect
3  CCC(C)(c1ccc(O)cc1)c1ccc(O)cc1 [BPB, 4,4'-(Butane-2,2-diyl)diphenol]  no effect
4  O=C(OCc1ccccc1)c1ccc(O)cc1 [BzPB, Benzyl 4-hydroxybenzoate]      -5.69
5  Cc1ccc(S(=O)(=O)NC(=O)Nc2ccc(Cc3ccc(NC(=O)NS(=O)(=O)c4ccc(C)cc4)cc3)cc2)cc1 [BTUM]      -6.59
6  CC(C)Oc1ccc(S(=O)(=O)c2ccc(O)cc2)cc1 [D8, 4-((4-Isopropoxyphenyl)sulfonyl)phenol]  no effect
7  CC(C)(c1ccc(OCC2CO2)cc1)c1ccc(OCC2CO2)cc1 (centres unmarked) [BADGE, Bisphenol A diglycidyl ether]  no effect

----------
Test system: SH-SY5Y cells
Conditions: NOI bioassay cytotoxicity; dosing range all; log-logistic model
Recorded Metric: logIC10

                                    compound  recorded_metric           result
 0      CC(c1ccccc1)(c1ccc(O)cc1)c1ccc(O)cc1          logIC10            -3.97
 1  Cc1ccc(S(=O)(=O)NC(=O)Nc2ccc(Cc3ccc(NC(=O)NS(=O)(=O)c4ccc(C)cc4)cc3)cc2)cc1          logIC10  no cytotoxicity
 2  CC(C)(c1ccc(O)c(-c2ccccc2)c1)c1ccc(O)c(-c2ccccc2)c1 [BPPH, 2,2-Bis(2-hydroxy-5-biphenylyl)propane]          logIC10            -4.64
 3  Oc1ccc(Cc2ccc(O)cc2)cc1 [BPF, Bis(4-hydroxyphenyl)methane]          logIC10            -3.24
 4  CC(C)(c1ccc(O)cc1)c1ccc(O)cc1 [BPA, 4,4'-(Propane-2,2-diyl)diphenol, reference compound]          logIC10            -3.62
 5            CCC(C)(c1ccc(O)cc1)c1ccc(O)cc1          logIC10            -3.78
 6  C=CCOc1ccc(S(=O)(=O)c2ccc(O)cc2)cc1 [BPS-MAE, 4-[[4-(Allyloxy)phenyl]sulfonyl]phenol]          logIC10            -3.87
 7  CC(C)(c1cc(Br)c(O)c(Br)c1)c1cc(Br)c(O)c(Br)c1          logIC10  no cytotoxicity
 8  Oc1ccc(C2(c3ccc(O)cc3)CCCCC2)cc1 [BPZ, 1,1'-Bis(4-hydroxyphenyl)cyclohexane]          logIC10            -4.10
 9  O=S(=O)(c1ccc(O)cc1)c1ccc(OCc2ccccc2)cc1 [BPS-MPE, 4-[4-(benzyloxy)benzenesulfonyl]phenol]          logIC10  no cytotoxicity
10                   Oc1ccc(Sc2ccc(O)cc2)cc1          logIC10  no cytotoxicity
11  CC(C)(c1ccc(OCC2CO2)cc1)c1ccc(OCC2CO2)cc1 (stereo not shown)          logIC10            -4.24
12  Oc1ccc(C(c2ccc(O)cc2)(C(F)(F)F)C(F)(F)F)cc1          logIC10            -4.18
13  Cc1ccc(S(=O)(=O)NC(=O)Nc2cccc(OS(=O)(=O)c3ccc(C)cc3)c2)cc1          logIC10  no cytotoxicity
14  CC(C)c1cc(C(C)(C)c2ccc(O)c(C(C)C)c2)ccc1O          logIC10            -4.44
15  CC(C)(c1cc(Cl)c(O)c(Cl)c1)c1cc(Cl)c(O)c(Cl)c1          logIC10  no cytotoxicity
